METHOD DESCRIPTION: viability loss in pontine glioma line – cell-based, SU-DIPG-XIII, MIPE5.0, CellTiter-Glo, qHTS, dose response (AID 1347064);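 note: cells exposed to compound for 48 hours before the viability read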
REPORTED CONDITIONS: CellTiter-Glo ATP luminescence
Inconclusive results are not listed. The source made the active and inactive calls. No cut-off is given here; in the data, nearly all actives have AC50 up to about 23 µM.
MEASURED QUANTITY: AC50

Query string: Please report the recorded AC50 for `CC(=O)c1cc2c(o1)C(=O)c1ccccc1C2=O` .
Result string: 0.934 µM (active)

Query string: Please report the recorded AC50 for `CCOC(=O)CCNc1cc(N2CCc3ccccc3CC2)nc(-c2ccccn2)n1` .
Result string: 3.32 µM (active)

Query string: Please report the recorded AC50 for `O=C(O)c1ccc(O)c2ncccc12` .
Result string: 20.9 µM (active)

Query string: Please report the recorded AC50 for `COc1cc(N2CCC(N3CCN(C)CC3)CC2)ccc1Nc1ncc(Cl)c(Nc2ccccc2P(C)(C)=O)n1` .
Result string: 0.332 µM (active)
